experiment.description: BET inhibitor-based combinations targeting novel dependencies in MECOM-rearranged (r) AML: AML-194 cell line (AID 2202237; note: nearly all actives have a fitted effect of over 40% in size)
assay.conditions: AML-194 (MECOM-r AML) viability, CellTiter-Glo, 48 h; series mostly up to 46 µM
Results filed as inconclusive are left out. Calls of active or inactive are those of the source. Calls come from the whole dose curve; as a rule, active = well fitted inhibition curve with a large enough effect; inconclusive = small, poorly fitted or top-dose-only effect; inactive = flat fitted curve, though single readings scatter.
// allowed return values: 1.0 for active, 0.0 for inactive

Example entries and their recorded answers appear below.
# smiles.text, class.label
measured = [
    ("Nc1nc(Cl)nc2c1ncn2[C@H]1C[C@H](O)[C@@H](CO)O1", 1.0),
    ("O=C(O)[C@@H](c1ccc(OCc2ccc3ccccc3n2)cc1)C1CCCC1", 0.0),
]

Exercise: GET /call?item= COc1cc2nccc(Oc3ccc(NC(=O)NC4CC4)c(Cl)c3)c2cc1C(N)=O returns the recorded outcome of this test.
Key: 0.0

Exercise: Can you check COc1cc(N2CCN(C)CC2)ccc1Nc1nccc(-c2cn(C)c3cnccc23)n1 next?
Key: 1.0

###

target.or.test.system: Cellular tumor antigen p53 (Homo sapiens)
experiment.description: Primary qHTS for small molecule compounds that upregulate eGFP-tagged delta133p53alpha (in N-terminal) cells. (AID 2060322);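 note: cells pre-induced with doxycycline then dosed without doxycycline; 0% = DMSO vehicle and 100% = reference activator; nearly all actives have a fitted effect of over 75% in size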
assay.conditions: NCI-H358 eGFP-delta133p53alpha fluorescence, 24 h; active compounds read high
Inconclusive results are not listed. The source made the active and inactive calls. The call rests on the fitted dose curve; in most records, active means well fitted activation curve with a large enough effect; inconclusive means small, poorly fitted or top-dose-only effect; inactive means no such curve, though single readings can be large or run the other way.
endpoint.name: activation

# molecule, target.or.test.system, activation
records = [
    ("Cc1ccc2[nH]c(=O)c(C3=NN(C(=O)CCC(=O)O)C(c4ccc(Br)cc4)C3)c(-c3ccccc3)c2c1 (stereo not drawn)", "Cellular tumor antigen p53 (Homo sapiens)", "-22.4% (inactive)"),
]

Exercise: Give the reported activation for C=C(C)[C@@H]1CC[C@]2(C)CC[C@]3(C)[C@H](CC[C@@H]4[C@@]5(C)CC[C@@H](O)C(C)(C)[C@@H]5CC[C@]43C)[C@@H]12 (system: Cellular tumor antigen p53 (Homo sapiens)).
Key: 17.6% (inactive)

Exercise: Another molecule to look at: CC(=O)NC(C)c1cnc(-c2cnc(Oc3ccc(OC(C)C)cc3)s2)s1 (stereo not drawn)
Key: -20% (inactive)

Exercise: Next: C[C@@H]1O[C@@H](OC[C@H]2O[C@@H](Oc3c(-c4ccc(O)c(O)c4)oc4cc(O)cc(O)c4c3=O)[C@H](O)[C@@H](O)[C@@H]2O)[C@H](O)[C@H](O)[C@H]1O
Key: -29.9% (inactive)

Exercise: Item: O=C(NCc1ccc(F)cc1)C(=O)c1c[nH]c2ccccc12
Key: 5.73% (inactive)

Exercise: Likewise for Cc1ccc(S(=O)(=O)OCC(=O)Nc2ccc(C(=O)O)c(O)c2)cc1 ?
Key: 22.5% (inactive)

Exercise: Another molecule: CCN(CC)c1ccc(C(=C2C=CC(=[N+](CC)CC)C=C2)c2cc(S(=O)(=O)O)ccc2S(=O)(=O)[O-])cc1
Key: -8.47% (inactive)

Exercise: COC(=O)c1c(C)cc(OC(=O)c2c(C)cc(OC)cc2OC)cc1O[C@@H]1O[C@H](CO)[C@@H](O)[C@H](O)[C@H]1O ?
Key: -15.3% (inactive)

Exercise: Also need COc1ccc(/C=C/C(=O)N2CCCC2)cc1 , thanks.
Key: 2.68% (inactive)

Exercise: Next: CCC(=O)N1CCOc2c(cc(-c3ccc(OC)c(OC)c3)cc2OC[C@H]2CCCN(C)C2)C1
Key: -0.477% (inactive)

Exercise: Now consider C=C1CO[C@@]2(O[C@H]3CC4C5CC=C6C[C@@H](O)C[C@@H](O[C@@H]7OC[C@H](O)[C@H](O[C@@H]8OC[C@@H](O)[C@H](O)[C@H]8O)[C@H]7O[C@@H]7O[C@@H](C)[C@H](OC(C)=O)[C@@H](OC(C)=O)[C@H]7OC(C)=O)[C@]6(C)C5CC[C@]4(C)[C@@H]3[C@@H]2C)[C@@H](O)[C@H]1OC1OC(C)C(O)C(O)C1O (stereo partly drawn) .
Key: -6.87% (inactive)

Exercise: Okay, and CCOc1ccc(NC(=S)N2CCC(C(O)(c3ccccc3)c3ccccc3)CC2)cc1 ?
Key: -0.955% (inactive)

Exercise: What about this molecule? C=C1CCC(OC(C)=O)C2(C)CC3OC(=O)C(C)=C3CC12 (stereo not drawn)
Key: -0.763% (inactive)

Exercise: Next molecule: CN1CCN(c2cc3c(cc2F)c(=O)c(C(=O)O)cn3-c2ccc(F)cc2)CC1
Key: 20.1% (inactive)

Exercise: Another molecule to look at: NC(=O)[C@H]1CCS[C@@H]2C[C@]3(CCCN3C(=O)Cc3ccc(NC(=O)COc4ccc(Cl)cc4Cl)cc3)C(=O)N12
Key: 19% (inactive)

Exercise: Same question for COCCCNC(=O)c1ccc(Cn2c(=O)c3ccccc3n(Cc3ccc(C(C)C)cc3)c2=O)cc1 please.
Key: 7% (inactive)

Exercise: Again, but for CCCCOC(=O)NS(=O)(=O)c1sc(CC(C)C)cc1-c1ccc(Cn2ccnc2)cc1
Key: 6.25% (inactive)

Exercise: // next record CC1(C)[C@H](O[C@H]2O[C@H](C(=O)O)[C@@H](O)[C@H](O)[C@H]2O[C@@H]2O[C@H](C(=O)O)[C@@H](O)[C@H](O)[C@H]2O)CC[C@@]2(C)[C@H]1CC[C@]1(C)[C@H]2C(=O)C=C2[C@H]3C[C@@](C)(C(=O)O)CC[C@]3(C)CC[C@]21C
Key: -5.71% (inactive)

Exercise: Also check Nc1ncnc2c1nc(Sc1ccc(Cl)cc1)n2[C@H]1OC2COP(=O)(O)O[C@@H]2C1O (stereo partly drawn)
Key: 27.8% (inactive)

###

experiment.description: BET inhibitor-based combinations targeting novel dependencies in MECOM-rearranged (r) AML: UCSD-AML1 cell line (AID 2202235); note: nearly all actives have a fitted effect of over 40% in size
assay.conditions: UCSD-AML1 AML cells viability, CellTiter-Glo, 48 h; series mostly up to 46 µM
Records with an inconclusive call do not appear. Active and inactive are the calls of the source. Calls follow the shape of the dose curve; as a rule, active = well fitted inhibition curve with a large enough effect; inconclusive = small, poorly fitted or top-dose-only effect; inactive = no such curve, though single readings can be large or run the other way.
In this exercise, the only acceptable responses are y = active, n = inactive

Example cases with answers are listed next.
# compound, class.label
data = [
    ("CCCn1c(=O)c2[nH]c(C34CC5CC3C[C@@H](C5)C4)nc2n(CCC)c1=O", "n"),
    ("CCN(CC)Cc1ccc2cc(COC(=O)Nc3ccc(C(=O)NO)cc3)ccc2c1", "y"),
    ("COc1ccc(/C=C/C(=O)Nc2ccccc2C(=O)O)cc1OC", "n"),
    ("CC(=O)O[C@]1(C(C)=O)CC[C@H]2[C@@H]3C=C(C)C4=CC(=O)CC[C@]4(C)[C@H]3CC[C@@]21C", "n"),
    ("NC(=O)c1cnc(N[C@@H]2CCCC[C@@H]2N)nc1Nc1cccc(-n2nccn2)c1", "y"),
]

Continue with the next compound.
Exercise: Hi, sorry to bother you, what did the test record for NC(CO)C(=O)NNCc1ccc(O)c(O)c1O (stereo unspecified) ?
Key: n

###

target.or.test.system: Cellular tumor antigen p53 (Homo sapiens) (UniProt P04637)
Sequence (P04637 whole entry, looked up): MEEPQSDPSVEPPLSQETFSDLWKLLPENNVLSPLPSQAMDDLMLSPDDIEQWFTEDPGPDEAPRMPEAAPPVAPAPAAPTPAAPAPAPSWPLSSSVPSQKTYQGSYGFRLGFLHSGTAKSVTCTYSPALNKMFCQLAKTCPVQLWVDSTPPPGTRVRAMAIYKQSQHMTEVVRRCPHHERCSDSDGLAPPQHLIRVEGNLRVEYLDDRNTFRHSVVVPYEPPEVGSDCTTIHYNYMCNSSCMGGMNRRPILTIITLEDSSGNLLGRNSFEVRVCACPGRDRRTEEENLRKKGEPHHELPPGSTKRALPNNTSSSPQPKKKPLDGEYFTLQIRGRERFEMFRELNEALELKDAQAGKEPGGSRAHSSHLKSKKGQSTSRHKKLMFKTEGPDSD
experiment.description: Primary qHTS for small molecule compounds that upregulate eGFP-tagged delta133p53alpha (in N-terminal) cells. (AID 2060322);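 note: cells pre-induced with doxycycline then dosed without doxycycline; 0% = DMSO vehicle and 100% = reference activator; nearly all actives have a fitted effect of over 75% in size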
assay.conditions: NCI-H358 eGFP-delta133p53alpha fluorescence, 24 h; active compounds read high
Results filed as inconclusive are left out.
endpoint.name: activation (%)
Express the result in % but write the number alone.

Worked set:
# compound, endpoint.name, value.reported
rows = [
    ("Clc1ccc(-c2nc3sccn3c2C=NOCc2ccc(Cl)c(Cl)c2)cc1", "activation", -15.4),
    ("COc1ccc(Cl)cc1[C@@]1(F)C(=O)Nc2cc(C(F)(F)F)ccc21", "activation", 24.8),
    ("CC(=O)OC1C(O)C(C)(O)C(/C=C/C(=O)O)C2(C)CCCC(C)(C)C12 (stereo not given)", "activation", -17.6),
]

Exercise: Entry CC(=O)O[C@H]1[C@H](O[C@H]2[C@@H]3C=CO[C@@H](O[C@@H]4O[C@H](CO)[C@@H](O)[C@H](O)[C@H]4O)[C@@H]3[C@@]3(CO)O[C@@H]23)O[C@@H](C)[C@H](OC(=O)/C=C/c2ccccc2)[C@H]1OC(=O)/C=C/c1ccccc1 has what activation?
Key: -7.63

Exercise: Another: O=S(=O)(c1ccccc1)N(CC(F)(F)F)c1ccc(C(O)(C(F)(F)F)C(F)(F)F)cc1
Key: -3.67

###

experiment.description: BET inhibitor-based combinations targeting novel dependencies in MECOM-rearranged (r) AML: AML-191 cell line (AID 2202236; note: nearly all actives have a fitted effect of over 35% in size)
assay.conditions: AML-191 viability, CellTiter-Glo luminescence, 48 h; series mostly up to 46 µM
Records with an inconclusive call do not appear. Activity calls are given as the source filed them. The call rests on the fitted dose curve; in most records, active means well fitted inhibition curve with a large enough effect; inconclusive means small, poorly fitted or top-dose-only effect; inactive means flat fitted curve, though single readings scatter.
Please state which outcome applies, choosing from active, inactive

Here are 5 compounds together with their reported answers.
# compound, class.label
rows = [
    ("COc1ccc(-n2nc(C(N)=O)c3c2C(=O)N(c2ccc(N4CCCCC4=O)cc2)CC3)cc1", "inactive"),
    ("Cc1ccnc(NS(=O)(=O)c2ccc(NC(=O)Nc3ccc(S(=O)(=O)Nc4nccc(C)n4)cc3)cc2)n1", "inactive"),
    ("CCN1CCCC1CNC(=O)c1cc(S(=O)(=O)CC)c(N)cc1OC (configuration not stated)", "inactive"),
    ("Nc1cc(C(Cl)=C(Cl)Cl)c(S(N)(=O)=O)cc1S(N)(=O)=O", "inactive"),
    ("C[C@@H](N)C1CCC(C(=O)Nc2ccncc2)CC1 (some centres not stated)", "inactive"),
]

Exercise: Hello, I am checking results. What call was entered for Cc1nc(Nc2ncc(C(=O)Nc3c(C)cccc3Cl)s2)cc(N2CCN(CCO)CC2)n1 ?
Key: active

Exercise: Would you mind doing CC(C)(Cc1ccc2ccccc2c1)NC[C@@H](O)COc1cccc(Cl)c1C#N as well?
Key: active

Exercise: Next: CN[C@H]1CCc2cc(OC)c(OC)c(OC)c2-c2ccc(OC)c(=O)cc21
Key: active

Exercise: Try the compound CN1CC[C@@H](NC(=O)Nc2ccc(C#N)cc2)C[C@@H]1c1nc2ccccc2[nH]1
Key: inactive

Exercise: Now consider Cc1cc(N2CCOCC2)cc2[nH]c(-c3c(NC[C@@H](O)c4cccc(Cl)c4)cc[nH]c3=O)nc12 and answer again.
Key: active

Exercise: Entry to check: O=c1[nH]nc(Sc2ncc([N+](=O)[O-])s2)n1-c1ccc2c(c1)OCCO2
Key: active

Exercise: // query: NNC(=O)c1ccncc1
Key: inactive

Exercise: Please do the same for NCCCC(N)(C(=O)O)C(F)F (configuration not stated) as well.
Key: inactive

Exercise: Entry CCCCCN=C(N)N/N=C/c1c[nH]c2ccc(OC)cc12 please
Key: active

Exercise: Also NC[C@H]1O[C@H](O[C@@H]2[C@@H](O)[C@@H](O[C@H]3O[C@H](CO)[C@@H](O)[C@H](N)[C@@H]3O)[C@H](N)C[C@@H]2N)[C@H](O)[C@@H](O)[C@H]1O ?
Key: inactive

Exercise: Would you kindly repeat that for NC(=O)c1ccc(N(C(N)=O)c2c(F)cccc2F)nc1-c1ccc(F)cc1F ?
Key: inactive

Exercise: Queued: O=S(=O)(O)CCS
Key: inactive

Hello, the source for this data is PubChem BioAssay (NCATS), in case you need it.
